# Tested on: P. aeruginosa (ΔmexAB-oprM)
# assay notes: Broth microdilution MIC in CAMHB
# Assay type: cell-based
# study conditions: Pseudomonas aeruginosa, read-out: Minimum Inhibitory Concentration, P. aeruginosa ΔmexAB-OprM
experimental readout: MIC

So, CCN1CCN(C(=O)NC(C(=O)N[C@H]2Cc3cccc(C(=O)O)c3OB2O)c2ccc(N)c(F)c2)C(=O)C1=O (stereo partly drawn) ? Its MIC was 2 to 4 µg/mL

So, NCCN1CCN(C(=O)N[C@@H](C(=O)N[C@H]2Cc3cccc(C(=O)O)c3OB2O)c2cccc(NS(N)(=O)=O)c2)C(=O)C1=O (single isomer, unassigned) ? Its MIC was 2 to 4 µg/mL

So, O=C(O)c1cccc2c1OB(O)[C@@H](NC(=O)C(NC(=O)N1CCN(CCF)C(=O)C1=O)c1c(F)cc(O)cc1F)C2 (mixture of isomers) ? Its MIC was 8 to 16 µg/mL

So, NCCCN1CCN(C(=O)NC(C(=O)N[C@H]2Cc3cccc(C(=O)O)c3OB2O)c2ccc(C(=O)O)cc2)C(=O)C1=O (stereo partly drawn) ? Its MIC was 8 to 16 µg/mL

So, NCCN1CCN(C(=O)N[C@H](C(=O)N[C@H]2Cc3cccc(C(=O)O)c3OB2O)c2cc(F)c(O)c(F)c2F)C(=O)C1=O (single isomer, unassigned) ? Its MIC was 8 to 16 µg/mL

So, CCN1CCN(C(=O)NC(C(=O)N[C@H]2Cc3cccc(C(=O)O)c3OB2O)c2cc(F)c(C(=O)O)c(F)c2)C(=O)C1=O (stereo partly drawn) ? Its MIC was 32 to 64 µg/mL

====

# System: K. pneumoniae UMM producing SHV-5 and KPC-2
# assay notes: Broth microdilution MIC in CAMHB
# Type: cell-based
# study conditions: Klebsiella pneumoniae, read-out: Minimum Inhibitory Concentration, K. pneumoniae UMM
Assignment: determine reported MIC for the given compounds.

So, CCN1CCN(C(=O)NC(C(=O)N[C@H]2Cc3ccc(C(F)(F)F)c(C(=O)O)c3OB2O)c2csc(N)n2)C(=O)C1=O (stereo partly drawn) [Example 63] ? Its MIC was > 128 µg/mL

So, CCN1CCN(C(=O)NC(C(=O)N[C@H]2Cc3cccc(C(=O)O)c3OB2O)c2ccc(O)c(N)c2)C(=O)C1=O (stereo partly drawn) [Example 29] ? Its MIC was 32 to 64 µg/mL

So, CCN1CCN(C(=O)NC(C(=O)N[C@H]2Cc3cccc(C(=O)O)c3OB2O)c2ccc(O)c(N(S(C)(=O)=O)S(C)(=O)=O)c2)C(=O)C1=O (stereo partly drawn) [Example 21] ? Its MIC was 32 to 64 µg/mL

So, NCCN1CCN(C(=O)NC(C(=O)N[C@H]2Cc3cccc(C(=O)O)c3OB2O)c2c(F)c(F)c(O)c(F)c2F)C(=O)C1=O (stereo partly drawn) [Example 174] ? Its MIC was 32 to 64 µg/mL

So, CCN1CCN(C(=O)NC(C(=O)N[C@H]2Cc3cccc(C(=O)O)c3OB2O)c2cc(Cl)c(O)c(Cl)c2)C(=O)C1=O (stereo partly drawn) [Example 171] ? Its MIC was 32 to 64 µg/mL

So, CCN1CCN(C(=O)NC(C(=O)N[C@H]2Cc3cccc(C(=O)O)c3OB2O)c2ccc(C(=O)O)c(F)c2)C(=O)C1=O (stereo partly drawn) [Example 31] ? Its MIC was 32 to 64 µg/mL

So, NCCN1CCN(C(=O)N[C@H](C(=O)N[C@H]2Cc3cccc(C(=O)O)c3OB2O)c2ccc(O)cc2Cl)C(=O)C1=O (single isomer, unassigned) [Example 85] ? Its MIC was > 128 µg/mL

So, CCN1CCN(C(=O)NC(C(=O)N[C@H]2Cc3cccc(C(=O)O)c3OB2O)c2cc(NS(N)(=O)=O)ccc2F)C(=O)C1=O (stereo partly drawn) [Example 197] ? Its MIC was 8 to 16 µg/mL

So, NS(=O)(=O)Nc1cccc([C@H](NC(=O)N2CCN(CC(F)(F)F)C(=O)C2=O)C(=O)N[C@H]2Cc3cccc(C(=O)O)c3OB2O)c1 (single isomer, unassigned) [Example 216] ? Its MIC was > 128 µg/mL

So, NCCN1CCN(C(=O)N[C@@H](C(=O)N[C@H]2Cc3cccc(C(=O)O)c3OB2O)c2c(F)cccc2Cl)C(=O)C1=O (single isomer, unassigned) [Example 205] ? Its MIC was > 128 µg/mL

So, NCCCN1CCN(C(=O)N[C@@H](C(=O)N[C@H]2Cc3cccc(C(=O)O)c3OB2O)c2cc(F)c(O)c(F)c2F)C(=O)C1=O (single isomer, unassigned) [Example 246] ? Its MIC was 2 to 4 µg/mL

So, CCN1CCN(C(=O)NC(C(=O)N[C@H]2Cc3cccc(C(=O)O)c3OB2O)c2c(F)c(F)c(O)c(F)c2F)C(=O)C1=O (stereo partly drawn) [Example 175] ? Its MIC was 32 to 64 µg/mL
